Entry source: patent US12617762B2

test system: NRF2 (nuclear factor erythroid 2-related factor 2); experiment: NRF2 +/-GSH activation assay (DiscoverX PathHunter NRF2 translocation kit, U2OS cells); format: cell-based; settings: +GSH; 30 minute compound-GSH pre-incubation; read-out: NRF2 activation +GSH EC50
Where a name gives a salt, the structure may show the parent alone.
// classify: if (EC50 < 30 µM) Yes else No

INSERT INTO results (molecule, class_name) VALUES
  ('COC(=O)/C=C/C(=O)OC [dimethyl fumarate, reference compound]', 'No');

Confirm or reject: EC50 of C=C(C(=O)O)C(C)(C)c1nc(C2(c3ccc(C(F)(F)F)cc3)CC2)no1 [Example 172] lies strictly below 30 µM
No
